Settings: in cyclohexane, 288.15 K
quantity: solubility (mole fraction)
Answers are plain numbers.

[ask] What value of measured solubility (mole fraction) is listed for CC1Cc2ccccc2N1NC(=O)c1ccc(Cl)c(S(N)(=O)=O)c1 (stereo unspecified) ?
[reply] 3.75e-06

====

Conditions: in acetone, 283.15 K
quantity: solubility (mole fraction)
Give bare numbers.

[ask] What value of measured solubility (mole fraction) is listed for CC1Cc2ccccc2N1NC(=O)c1ccc(Cl)c(S(N)(=O)=O)c1 (stereo unspecified) ?
[reply] 0.0228

====

Settings: in isopropanol, 313.15 K
quantity: solubility (mole fraction)
Numbers only.

[ask] What value of measured solubility (mole fraction) is listed for CC1Cc2ccccc2N1NC(=O)c1ccc(Cl)c(S(N)(=O)=O)c1 (stereo unspecified) ?
[reply] 0.013
